System: MS2 coat protein
Assay: apparent KD of MS2 coat protein; designed switch direction (-1 OFF switch, 1 ON switch): 1; higher = weaker reporter binding
Conditions: Eterna round: R95; input ligand: microRNA oligo, concentration not stated
Measured attribute: apparent KD of MS2 coat protein (nM)
API: value field is a number in nM; no unit string.

Take a look at these entries with their results.
Residue codes	Tested target	Observed value
CGUAGGUAGCUGGAGGAUAUUCGAGUGGUAACAUGAGGAUCACCCAUGUGGAGUUAGGUACAUGAGGAGAAGGCUAGCUGCCUGC [JL-ss2-3.18 JL mod] (puzzle: Same State 2)	MS2 coat protein	23
GGGCCAGCUUGUGCUGGGCCUUCGCAUGCACAUGAGGAUCACCCAUGUCGUGUACAUGCUUGGUGCCCGUCUUUAAA [Photon Torp-13] (puzzle: Sensor for hsa-mir-208a)	MS2 coat protein	13.9

Below: the item to evaluate.
Challenge: Give its apparent KD of MS2 coat protein value. Item: AGUCCAGCCUGAGCUGGACAAAAGCAUGUACAUGAGGAUCACCCAUGUUCAUGUACAAGCUUUUUGCUCGUUUUAAA [Zipper 52 - 8] (puzzle: Sensor for hsa-mir-208a)
Response given: 13.5

====

Tested on: MS2 coat protein
Assay: apparent KD of MS2 coat protein; higher = weaker reporter binding
Conditions: Eterna round: R107; input ligand: tryptophan 2.4 mM
Measured attribute: apparent KD of MS2 coat protein (nM)
API: value field is a number in nM; no unit string.

Residue codes	Units label	Observed value
ACAUGAGGAUCACCCAUGUACAUGACGGAAGGAGCGUGCAAAAGCACAGGUAGGUCGCCGAUCUACAUAUUGGGUAUUAUAUUUU [#29 Exclusion - Arginine A]	nM	24.2
GGUGAUCCGUAUCACCGGAUCAUCGGUGAUACCAGCAUCGAAAGAUGCCCUUGGCAGCACCAACAUGAGGAUCACCCAUGUAAUA [(M)'-(T)'-(M)''-(T1)-(T2)-(M1)-(M2)_Design6]	nM	98.4
UCGUGUGUUUCGGAUACCAGUGAAAUCGAUACAUGAGGAUCACCCAUGUGAGAGGAUGUACACCCUUGGCAGCUGGCUGUUGCGG [zezmullin]	nM	34.2

Challenge: So what apparent KD of MS2 coat protein did CUGUACAUCUCGGCCGCCACUGACAUGAGGAUCACCCAUGUAGUGCCGAUGAGAGACUUAUCGGCCAGGACCGGGAGGUGUGCAG [SSTryp B #32] get with MS2 coat protein?
Response given: 11.9

Challenge: So what apparent KD of MS2 coat protein did CGUGGUGGGACGGAUACCAGCCACCGCGGCAACGCAACAUGAGGAUCACCCAUGUUGGGUGGCCCUUGGCAGCUGUCCUGCGGCG [#1 Same State - Theophylline B Attempt #26 (HarryS)] get with MS2 coat protein?
Response given: 11.4

Challenge: So what apparent KD of MS2 coat protein did AAGGAACAUGAGGAUCACCCAUGUACCGAAGGAGCGGCAGAGAUGCCAGGUAGGUCGCGGUACUUGCCGGGUCAUUCAUGCAGAG [Arraiste] get with MS2 coat protein?
Response given: 23.9

Challenge: So what apparent KD of MS2 coat protein did GAGACGUCGGGAAGGAGCGCAUCCAAACCACACAUGAGGAUCACCCAUGUAUAAAUAUGCAUGCAGGUAGGUCGCCCGGUGUCCC [Diaxeon] get with MS2 coat protein?
Response given: 75.1

Challenge: So what apparent KD of MS2 coat protein did UUUAUGGAGCUUUUAUUUACGAUUUCUGAUACCAGUGUUUCAUUUCACCCUUGGCAGCAGUGACAUGAGGAUCACCCAUGUAAUA [JR_Nu_SSTheophyA_Sub020] get with MS2 coat protein?
Response given: 27.7

====

# Lookup of reported apparent KD of MS2 coat protein keyed by entry
Test system: MS2 coat protein
Test: apparent KD of MS2 coat protein; designed switch direction (-1 OFF switch, 1 ON switch): -1; higher = weaker reporter binding
Settings: input ligand: FMN 200 uM
Put your answer as a value accompanied by its unit after it.

Residue codes	Observed value
UCUCCCUGGCAAGGAUAUCCUGUGCGGUUCCGGCUCGUGUCUGUUACAUGAGGAUCACCCAUGUGGGAGAAGGUGCCUGUGGCU [Design 92] (Eterna round: R96, puzzle: Exclusion NG 2)	346 nM
GACUAAACACGAGGAUAUGCCUGGGAAGAACAGGCAGAAGGCGUGACAUGAGGAUCACCCAUGUAGCCGGGCUAUUCUCGUACG [Tirearerar] (Eterna round: R96, puzzle: Exclusion NG 1)	30.8 nM
AAAAUAAACCUCAUUUAAAACAUGAGGAUCACCCAUGUAAAAUGCUCGUCUUAUUAAAUGUACUCCUAGUUCGUACA [My solution] (Eterna round: R97, puzzle: Sensor, turn-off variant 1)	178 nM
UCCAAGUUUGUAGGAUAUACUCUCCUUUGGAGAGUAGAAGGACAUGAGGAUCACCCAUGUUGUAUAAAUUUGGGAUGUUCCUCG [random3] (Eterna round: R96, puzzle: Exclusion NG 1)	122 nM

Challenge: Give its apparent KD of MS2 coat protein value. Item: CUCCGGCGUGUAGGAUAUGGUUCCGUUUUGGUUCCAGAAGGACAUGAGGAUCACCCAUGUACAUGUCGUCGGUCGUCACCGGGC [salish99_ExNG1_r04_214] (Eterna round: R96, puzzle: Exclusion NG 1)
Response given: 104 nM

====

# Lookup of reported apparent KD of MS2 coat protein keyed by entry
Tested on: MS2 coat protein
Assay: apparent KD of MS2 coat protein; designed switch direction (-1 OFF switch, 1 ON switch): -1; higher = weaker reporter binding
Settings: input ligand: none
API: value field is a number in nM; no unit string.

Take a look at these entries with their results.
Residue codes	Observed value
CCGGUUUAGGAGGAUAUAGGAGUCGAUAGACACCUAGAAGGCCUAACAUGAGGAUCACCCAUGUGACCUUCCGG [Mod of Eli 30 - Jieux - Exclusion 6] (Eterna round: R97, puzzle: Exclusion 6)	76
GGCCGUAAUAAGGAUAUCACUAGCGAUAGCUAGUGAGAAGGUAUUACAUGAGGAUCACCCAUGUGAUCAGGCCA [E6/3-B3] (Eterna round: R97, puzzle: Exclusion 6)	176
UUGCGCUGAGGAUAUAUAACCGAUGACAUGAGGAUCACCCAUGUGGAUACAAGGGACUGAAUAGAAGGUAGCCAGA [Eternabot (L1) Solution 69] (Eterna round: R97, puzzle: Exclusion 5)	79.9
CAUCACUGCUAGGAUAUCGAGUCGGAGAAUACUUGAGAAGGAGCUACAUGAGGAUCACCCAUGUCCUCCGCGAU [Eternabot (L2) Solution 72] (Eterna round: R97, puzzle: Exclusion 6)	18.8
ACGAUGAUCGAAAAGUGUAAACUAACAUGAGGAUCACCCAUGUAGGAUAUGGCUACGAAAAGUAGUCAGAAGGGCAUGUCAUCA [3 Av mod - 2] (Eterna round: R96, puzzle: Exclusion NG 3)	20.3
GGAAGGCGAGGAUAUACAAUGCCGGAAACGGCAGGCGUGAGACAUGAGGAUCACCCAUGUAGAAGGCGCGGAGA [AK-MS2ROC-r4-exclusion2-15] (Eterna round: R97, puzzle: Exclusion 2)	105
CGGUGCUCGUGGAAACAUGAGGAUCACCCAUGUAGAGUUAGCGAGGAUAUCGGUAACACACAUCACGAGAAGGCGCGAACCUGU [Ex NG3 #6] (Eterna round: R96, puzzle: Exclusion NG 3)	20.8
GUUGCAAGCACUUACGUUGACAUGAGGAUCACCCAUGUAGCAUCUCCGCCAAUCUAAGCCGUUGUCUUAUAUACCUU [Eternabot (L2) Solution 3] (Eterna round: R97, puzzle: Sensor, turn-off variant 1)	51.7
UUUCUUGGGCAAGGAUAUCCUGUGCGGUUCCGGCUCGUGUCUGUCACAUGAGGAUCACCCAUGUGGGAGAAGGUGCCUGCGGUC [Design 82] (Eterna round: R96, puzzle: Exclusion NG 2)	14.9
AGUAACUCAAGAGGAUAUCACAUGAGGAUCACCCAUGUAUAGCGCGCUGCGCUAGUCCUCGUAUUUGAGAAGGUUUGAUAAAUG [Riausve] (Eterna round: R96, puzzle: Exclusion NG 2)	15.7

Below: the item to evaluate.
Challenge: Give its apparent KD of MS2 coat protein value. Item: GUUUGACAUGAGGAUCACCCAUGUAAGGAUAUACGAGUAGCUACUAGGUAGUUAGUAUGUAGAAGGUACGUGUU [EX1 #65] (Eterna round: R97, puzzle: Exclusion 1)
Response given: 40.3

====

Test system: MS2 coat protein
Experiment: apparent KD of MS2 coat protein; higher = weaker reporter binding
Conditions: Eterna round: R107; input ligand: arginine 13.2 mM
Tag: Condition met if measured apparent KD of MS2 coat protein is not below 40 nM, Condition not met if it is.

Known results for sequences:
Residue codes	Category label
UUCAGCUAGUCGGCCGCCACUACAUGAGGAUCACCCAUGUAAUCCUAACACUGCUUCGGCAGUGGUAGGACCGGGACUAGCUGAG	Condition not met
GAUGAACUAUUUGAUACCAGACUACAUGAGGAUCACCCAUGUGAGUUUCCUCCUCUGCCAGUCCCUUGGCAGCAAAUAGUUUAUC [XTheo B #7]	Condition met
AGAGCAUUGACGGCCGCCACUUAUGUCACAUGAGGAUCACCCAUGUGAUGGGUGAUAGCCCGGUUGAGGACCGGGUCAAUGCUCA [Omei Tryp SS B v6]	Condition not met

Challenge: Kindly determine if apparent KD of MS2 coat protein recorded for `UGUAUGGACUGAAGGAGCGGGUUGAUAACCUGAGGAUCAUCCAGGUAAAAGGCGAAAGCCACCCAGGUAGGUCGCAGUCCAUACU` is above or exactly 40 nM.
Response given: Condition met

Challenge: Kindly determine if apparent KD of MS2 coat protein recorded for GCUAGCCGAAAGGCUAGCAGCGCUACAGAAGGAGCGUGCGAAAGCACAGGUAGGUCGCUGAACAUGAGCAUCAGCCAUGUUGCGC [SSAA - Alter Amptam #2 V2+NP] is above or exactly 40 nM.
Response given: Condition not met

Just for reference, the supplement of paper PMC9170038 is where these values come from.
